Just for reference, PubChem BioAssay AID485297 is where these values come from.

- Method summary: qHTS Assay for Rab9 Promoter Activators; further: nearly all actives have a fitted effect of over 60% in size
- Measurement context: Huh7 Rab9 promoter-luciferase reporter, luminescence, 24 h; series mostly up to 9.22 µM
About 9,100 (2.8%) of roughly 320,000 compounds were called active. Another 3% or so got no clear call; they are omitted. The call rests on the fitted dose curve; in most records, active means well fitted activation curve with a large enough effect; inconclusive means small, poorly fitted or top-dose-only effect; inactive means no such curve, though single readings can be large or run the other way. The full list was thinned out, with actives kept by preference.
Permitted responses: 1 (yes) = active, 0 (no) = inactive

(Q) So what was the verdict on O=C(Nc1cccc2cccnc12)c1cccc(Cl)c1 in this test?
(A) 0 (no)

(Q) What is the recorded call for this compound in the test? O=C(CSc1nnc(-c2ccco2)n1-c1ccccc1)NCCc1ccccc1
(A) 0 (no)

(Q) Each compound tested received a call. Report the one for COc1ccc(CCNC(=O)CCc2ccccc2O)cc1OC .
(A) 0 (no)

(Q) // outcome(item) with item = CCOC(=O)[C@H]1[C@H]2COc3ccc(C)cc3[C@@H]2N2C(=O)CN(Cc3ccc(F)cc3)C(=O)[C@@]12C
(A) 0 (no)

(Q) Per the records of this test, what outcome belongs to CCc1ccccc1NC(=O)CSc1nnc(-c2ccncc2)o1 ?
(A) 0 (no)

(Q) Outcome logged for Cc1ccc(CNC(=O)CC(NC(=O)c2ccccc2)c2ccccc2)cc1 (stereo not drawn) in this assay:
(A) 0 (no)

(Q) Hey, what did the test say about CCCCn1nc(C(=O)Nc2cccc(C(=O)NC3CC3)c2)c2ccccc2c1=O ?
(A) 0 (no)

(Q) Given Clc1ccc(-n2nnnc2-c2cnc(-c3ccccn3)nc2-c2cccs2)cc1 , state the outcome it received in this test.
(A) 0 (no)

(Q) What was the test verdict on Cc1ccc(-c2noc(CSc3nnc(-c4cccs4)n3C)n2)cc1 ?
(A) 0 (no)

(Q) What was the test verdict on O=C(COC(=O)c1ncc(Cl)c(Cl)c1Cl)NCc1ccccc1 ?
(A) 0 (no)

(Q) Could you check what this test reported for CCOC(=O)C1CCCN(C(=O)c2ccc(C)c(S(=O)(=O)N3CCCCC3)c2)C1 (stereo not drawn) ?
(A) 0 (no)

(Q) Which outcome did this test record for the compound CCOc1ccc(NC(=O)CN(C)C(=O)Cn2c(=O)cnc3ccccc32)cc1OCC ?
(A) 0 (no)

(Q) What did this assay record as the result for C/C=C\C=C\C(=O)N1CC2(CC(c3cccc(NC(=O)/C(C)=C\C)c3)=NO2)C[C@H]1C(N)=O (stereo partly drawn) ?
(A) 0 (no)

(Q) Please share the test call associated with O=C(CSc1nnc(-c2ccc([N+](=O)[O-])cc2)o1)Nc1ccccn1 .
(A) 1 (yes)

(Q) How was C[C@@H]1NC(=O)[C@@]2(C)[C@@H](c3ccccc3)[C@H]3COc4ccccc4[C@@H]3N2C1=O classified in this test?
(A) 0 (no)

(Q) Short answer needed: outcome of this test for COc1cc(OC)cc(-c2nnc(N(C)C(=O)c3ccncc3)s2)c1 ?
(A) 0 (no)

(Q) Could you check what this test reported for CN(CC(=O)Nc1ccc(Cl)cc1)CC(=O)Nc1cccc2ccccc12 ?
(A) 0 (no)

(Q) What outcome does the record of this test show for Cc1ccc(Cn2ccc(NC(=O)C3C4CCC(C4)C3C(=O)O)n2)cc1 (stereo not drawn) ?
(A) 0 (no)

(Q) // return assay outcome for Cc1ccc(-c2noc(CSc3nnc(-c4ccncc4)n3-c3ccc(F)cc3)n2)cc1
(A) 0 (no)

(Q) Give the logged outcome of this assay for the following compound: O=C(CSc1nnc(-c2ccco2)n1CC1CCCO1)c1ccccc1 (stereo not drawn)
(A) 0 (no)

(Q) # lookup: test call for COc1ccccc1NC(=O)COC(=O)COc1ccccc1F
(A) 0 (no)

(Q) Short answer needed: outcome of this test for O=C(C1CC(=O)N(C2CCCC2)C1)N1CCN(c2cccc(C(F)(F)F)c2)CC1 (stereo not drawn) ?
(A) 0 (no)

(Q) Please indicate how the test categorized O=C(CCNS(=O)(=O)c1ccccc1)NCCCc1ccccc1 .
(A) 0 (no)

(Q) Could you kindly confirm the outcome this assay logged for c1csc(-c2nc(-c3ccncc3)no2)c1 ?
(A) 1 (yes)

(Q) Please share the test call associated with Cc1nn(Cc2ccccc2)c(C)c1C(=O)N1CCN(CC(=O)Nc2ccccc2Cl)CC1 .
(A) 0 (no)

(Q) Name the outcome recorded for O=C(Cc1nc2ccccc2[nH]c1=O)c1ccc(Cl)cc1 in the assay.
(A) 1 (yes)

(Q) Give the logged outcome of this assay for the following compound: COc1ccccc1C(=O)NC(CCSC)C(=O)N1CCN(C(C)=O)CC1 (stereo not drawn)
(A) 0 (no)

(Q) Any idea what this test logged for COc1ccc(C(=O)COC(=O)c2ccc([N+](=O)[O-])s2)cc1OC ?
(A) 0 (no)

(Q) What is the recorded call for this compound in the test? COc1ccc(OC)c(NC(=O)c2sc3nc(C)cc(C)c3c2N)c1
(A) 0 (no)

(Q) Just curious, what result did Cc1ccc(/C=C/C(=O)OCC(=O)Nc2cccnc2Cl)cc1 get here?
(A) 0 (no)

(Q) Identify the outcome logged in this assay for the compound shown: N#Cc1ccccc1NC(=O)c1cccc(COc2ccc(Cl)cc2Cl)c1
(A) 1 (yes)

(Q) How did this test come out for c1ccc(CSc2nnc(-c3ccco3)n2Cc2ccccc2)cc1 ?
(A) 1 (yes)

(Q) Which outcome did this test record for the compound O=C(Nc1ccn(Cc2ccccc2)n1)c1n[nH]c([N+](=O)[O-])c1Cl ?
(A) 1 (yes)

(Q) # outcome recorded in this test, key = O=C(Nc1ccccc1N1CCN(c2ccccc2)CC1)c1cccc(F)c1
(A) 0 (no)

(Q) Recorded call for COc1ccc(CCNC(=O)COC(=O)c2cc(=O)c3ccccc3o2)cc1 ?
(A) 0 (no)

(Q) Just curious, what result did O=C(CN1CCN(S(=O)(=O)c2ccc(Cl)s2)CC1)N1CCCCC1 get here?
(A) 0 (no)

(Q) Assay result, entry Cc1cccc(C(=O)NCC(=O)OCC(=O)N(C)CC(=O)Nc2ccccc2Cl)c1 — outcome?
(A) 0 (no)

(Q) Lab log entry: O=C(/C(=C/c1cccc(Cl)c1)c1nc2ccccc2[nH]1)c1ccccc1 — outcome as called in the assay?
(A) 0 (no)

(Q) What did the test return for CCOc1ccc(C(=O)NCC(=O)N2CCN(c3ccc(C(F)(F)F)cn3)CC2)cc1 ?
(A) 0 (no)

(Q) Please let me know the test result on file for N#C/C(=C(/O)COC(=O)COc1ccc(Cl)cc1)c1nc2ccccc2[nH]1 .
(A) 0 (no)

(Q) Any idea what this test logged for CCCn1nc(C(=O)NNC(=O)CCOc2ccccc2OCC)c2ccccc2c1=O ?
(A) 0 (no)

(Q) Please let me know the test result on file for CN(C(=O)c1ccccn1)c1nnc(-c2ccccn2)s1 .
(A) 1 (yes)

(Q) Record lookup: outcome of this test for Cc1ccc(NC(=O)CCCNC(=O)c2ccc(Cl)cc2)cc1S(=O)(=O)N1CCCCC1 ?
(A) 0 (no)
